Reference for the values: ChEMBL document CHEMBL3822380

- Test system: HaCaT
- PROTOCOL NOTES: Induction of superoxide anion generation in human HaCaT cells at 25 uM after 72 hrs by DHE staining-based flow cytometric analysis relative to control
- Assay type: cell-based
EXPERIMENTAL ENDPOINT: Activity

# ITEM SMILES, EXPERIMENTAL RESULT
rows = [
    ("CC(C)(C)C1=CC(=O)C=C(NCCc2ccccc2)C1=O", "Non-toxic"),
    ("CCCCCCCCNC1=CC(=O)C=C(C[C@]2(C)[C@@H](C)CC[C@]3(C)C(C)=CCC[C@@H]23)C1=O", "Toxic"),
    ("CCCCCCCCNC1=CC(=O)C=C(C(C)(C)C)C1=O", "Non-toxic"),
    ("CC1=CCC[C@H]2[C@](C)(CC3=CC(=O)C=C(NCCc4ccccc4)C3=O)[C@@H](C)CC[C@]12C", "Toxic"),
]

----------
Give MIC for every item shown.
- System: Escherichia coli
- PROTOCOL NOTES: Antibacterial activity against Escherichia coli ATCC 25922 by broth microdilution method
- Type: functional

# COMPOUND, EXPERIMENTAL RESULT
data = [
    ("CC(C)(C)C1=CC(=O)C(NCc2ccccc2)=CC1=O", "36 µM"),
    ("NCC[C@H](O)C(=O)N[C@@H]1C[C@H](N)[C@@H](O[C@H]2O[C@H](CN)[C@@H](O)[C@H](O)[C@H]2O)[C@H](O)[C@H]1O[C@H]1O[C@H](CO)[C@@H](O)[C@H](N)[C@H]1O [AMIKACIN]", "9 µM"),
    ("CC(C)(C)C1=CC(=O)C=C(NCc2ccccc2)C1=O", "9 µM"),
]

Consider now this further compound.
Read the entry CCCCNC1=CC(=O)C=C(C(C)(C)C)C1=O and write its reported MIC.
9 µM

----------
- System: Escherichia coli
- PROTOCOL NOTES: Antibacterial activity against Escherichia coli ATCC 25922 by broth microdilution method
- Type: functional
Give MIC for every item shown.
One number for each entry, in µM.

Here is how some compounds turned out for MIC.
# ITEM SMILES, SUBJECT OF TEST, RESULT UNITS, MIC
rows = [
    ("CCNC1=CC(=O)C=C(C(C)(C)C)C1=O", "Escherichia coli", "µM", 24),
    ("CC(C)(C)C1=CC(=O)C=C(NCCc2ccccc2)C1=O", "Escherichia coli", "µM", 9),
]

Provide the reported MIC of each entry below, same order.
1. CNC1=CC(=O)C(C(C)(C)C)=CC1=O
2. CCCCCCCCNC1=CC(=O)C(C(C)(C)C)=CC1=O
3. CCCCNC1=CC(=O)C(C(C)(C)C)=CC1=O
4. CCNC1=CC(=O)C(C(C)(C)C)=CC1=O
5. CNC1=CC(=O)C=C(C(C)(C)C)C1=O

104
4300
19
188
202

----------
- Tested on: NCI-H460
- PROTOCOL NOTES: Induction of apoptosis in human NCI-H460 cells assessed as early apoptotic cells at 25 uM after 72 hrs by annexin-V/propidium iodide staining-based flow cytometric analysis (reference value: 0.3%)
- Assay type: functional
EXPERIMENTAL ENDPOINT: Activity (%)
Give bare numbers, in %.

Here is how some compounds turned out for Activity.
# ITEM SMILES, Activity [%]
data = [
    ("CC(C)(C)C1=CC(=O)C=CC1=O", 0.5),
    ("CCCCCCCCNC1=CC(=O)C=C(C(C)(C)C)C1=O", 0.2),
    ("CC(C)(C)C1=CC(=O)C(NCCc2ccccc2)=CC1=O", 0.8),
    ("CCCCCCCCNC1=CC(=O)C(C(C)(C)C)=CC1=O", 0.1),
]

Provide the reported Activity of each entry below, same order.
1. CC1=CCC[C@H]2[C@](C)(CC3=CC(=O)C=CC3=O)[C@@H](C)CC[C@]12C
2. CC(C)(C)C1=CC(=O)C=C(NCCc2ccccc2)C1=O
3. CC1=CCC[C@H]2[C@](C)(CC3=CC(=O)C(NCCc4ccccc4)=CC3=O)[C@@H](C)CC[C@]12C
4. CCCCCCCCNC1=CC(=O)C(C[C@]2(C)[C@@H](C)CC[C@]3(C)C(C)=CCC[C@@H]23)=CC1=O
5. CC1=CCC[C@H]2[C@](C)(CC3=CC(=O)C=C(NCCc4ccccc4)C3=O)[C@@H](C)CC[C@]12C
6. CCCCCCCCNC1=CC(=O)C=C(C[C@]2(C)[C@@H](C)CC[C@]3(C)C(C)=CCC[C@@H]23)C1=O

1: 3.4; 2: 2.4; 3: 0.3; 4: 0; 5: 0.1; 6: 0.1

----------
- System: HaCaT
- PROTOCOL NOTES: Induction of apoptosis in human HaCaT cells assessed as dead cells at 25 uM after 72 hrs by annexin-V/propidium iodide staining-based flow cytometric analysis (reference value: 2.8%)
- Assay type: cell-based
EXPERIMENTAL ENDPOINT: Activity (%)
Answers are plain numbers, in %.

Here is how some compounds turned out for Activity.
# ITEM SMILES, EXPERIMENTAL RESULT
rows = [
    ("CCCCCCCCNC1=CC(=O)C=C(C(C)(C)C)C1=O", 19.8),
    ("CCCCCCCCNC1=CC(=O)C=C(C[C@]2(C)[C@@H](C)CC[C@]3(C)C(C)=CCC[C@@H]23)C1=O", 13.8),
    ("CC(C)(C)C1=CC(=O)C=C(NCCc2ccccc2)C1=O", 14.2),
    ("CC1=CCC[C@H]2[C@](C)(CC3=CC(=O)C=C(NCCc4ccccc4)C3=O)[C@@H](C)CC[C@]12C", 41.3),
]

Consider now this further compound.
Read the entry CCCCCCCCNC1=CC(=O)C(C(C)(C)C)=CC1=O and write its reported Activity.
5.7

----------
- System: Salmonella enteritidis
- PROTOCOL NOTES: Antibacterial activity against Salmonella enterica subsp. enterica serovar Enteritidis ATCC 13076 by broth microdilution method
- Type: functional
EXPERIMENTAL ENDPOINT: MIC (µM)
One number for each entry, in µM.

Provide the reported MIC of each entry below, same order.
1. CC(C)(C)C1=CC(=O)C(NCCc2ccccc2)=CC1=O
2. CC(C)(C)C1=CC(=O)C=C(NCc2ccccc2)C1=O
3. CCNC1=CC(=O)C=C(C(C)(C)C)C1=O
4. CCNC1=CC(=O)C(C(C)(C)C)=CC1=O
5. CNC1=CC(=O)C(C(C)(C)C)=CC1=O
6. CC(C)(C)C1=CC(=O)C=C(NCCc2ccccc2)C1=O
7. CCCCNC1=CC(=O)C(C(C)(C)C)=CC1=O
8. CNC1=CC(=O)C=C(C(C)(C)C)C1=O

1. 4420
2. 4650
3. 381
4. 758
5. 813
6. 4420
7. 620
8. 1620

Provide the reported MIC of each entry below, same order.
1. CCCCNC1=CC(=O)C=C(C(C)(C)C)C1=O
2. CCCCCCCCNC1=CC(=O)C(C(C)(C)C)=CC1=O
3. NCC[C@H](O)C(=O)N[C@@H]1C[C@H](N)[C@@H](O[C@H]2O[C@H](CN)[C@@H](O)[C@H](O)[C@H]2O)[C@H](O)[C@H]1O[C@H]1O[C@H](CO)[C@@H](O)[C@H](N)[C@H]1O [AMIKACIN]
4. CC(C)(C)C1=CC(=O)C(NCc2ccccc2)=CC1=O

1: 620; 2: 2150; 3: 14; 4: 4650

----------
- Test system: Micrococcus luteus
- PROTOCOL NOTES: Antibacterial activity against Micrococcus luteus ATCC 4698 by broth microdilution method
- Type: functional
- COND: NCTC 2665
EXPERIMENTAL ENDPOINT: MIC (µM)
Answers are plain numbers, in µM.

Provide the reported MIC of each entry below, same order.
1. CC(C)(C)C1=CC(=O)C=C(NCCc2ccccc2)C1=O
2. CCNC1=CC(=O)C(C(C)(C)C)=CC1=O
3. CC(C)(C)C1=CC(=O)C(NCCc2ccccc2)=CC1=O
4. CCCCNC1=CC(=O)C(C(C)(C)C)=CC1=O
5. CCNC1=CC(=O)C=C(C(C)(C)C)C1=O

[2210, 1510, 2210, 2470, 758]

Provide the reported MIC of each entry below, same order.
1. CC(C)(C)C1=CC(=O)C(NCc2ccccc2)=CC1=O
2. CCCCNC1=CC(=O)C=C(C(C)(C)C)C1=O
3. CNC1=CC(=O)C(C(C)(C)C)=CC1=O
4. NCC[C@H](O)C(=O)N[C@@H]1C[C@H](N)[C@@H](O[C@H]2O[C@H](CN)[C@@H](O)[C@H](O)[C@H]2O)[C@H](O)[C@H]1O[C@H]1O[C@H](CO)[C@@H](O)[C@H](N)[C@H]1O
5. CNC1=CC(=O)C=C(C(C)(C)C)C1=O
6. CC(C)(C)C1=CC(=O)C=C(NCc2ccccc2)C1=O
7. CCCCCCCCNC1=CC(=O)C(C(C)(C)C)=CC1=O

2320
154
831
3
1620
4650
4300
